- testSystem: Type-1 angiotensin II receptor (Homo sapiens)
- Sequence (P30556 whole entry): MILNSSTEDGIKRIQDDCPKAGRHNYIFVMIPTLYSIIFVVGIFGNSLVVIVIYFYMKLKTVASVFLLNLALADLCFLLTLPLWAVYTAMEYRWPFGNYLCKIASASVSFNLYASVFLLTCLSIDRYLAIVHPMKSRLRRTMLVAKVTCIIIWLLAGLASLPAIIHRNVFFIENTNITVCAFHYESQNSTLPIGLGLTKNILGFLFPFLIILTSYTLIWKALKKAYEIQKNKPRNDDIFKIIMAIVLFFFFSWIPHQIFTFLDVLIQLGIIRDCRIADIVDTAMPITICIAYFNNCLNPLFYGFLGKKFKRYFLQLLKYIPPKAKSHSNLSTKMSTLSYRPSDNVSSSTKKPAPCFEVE
- assayMethodText: Displacement of [125-I]-[Sar1, Ile8] from recombinant human AT1R transfected in human HEK293 cells incubated for 2 hrs by liquid scintillation counter analysis
pIC50: −log10 of the molar value. Square brackets hold non-standard residues; d marks the D form. Peptide text beside a SMILES is read from it. Tic(7-OH) = O=C(O)[C@@H]1Cc2ccc(O)cc2CN1

[
  {
    "compound": "CC[C@H](C)[C@H](NC(=O)[C@H](Cc1ccc(O)cc1)NC(=O)[C@@H](NC(=O)[C@@H](N)CCCNC(=N)N)C(C)C)C(=O)N[C@H]1Cc2c([nH]c3ccccc23)CN(CC(=O)N[C@@H](Cc2ccccc2)C(=O)O)C1=O",
    "pIC50": "< 5.00"
  },
  {
    "compound": "CC[C@H](C)[C@H](NC(=O)[C@H](Cc1ccc(O)cc1)NC(=O)[C@@H](NC(=O)[C@H](CCCNC(=N)N)NC(=O)[C@@H](N)CC(=O)O)C(C)C)C(=O)N1Cc2cc(O)ccc2C[C@H]1C(=O)N1CCC[C@H]1C(=O)N[C@@H](Cc1ccccc1)C(=O)O (H-DRVYI[Tic(7-OH)]PF-OH)",
    "pIC50": "< 5.00"
  },
  {
    "compound": "CC[C@H](C)[C@H](NC(=O)[C@H](Cc1ccc(O)cc1)NC(=O)[C@@H](NC(=O)[C@@H](N)CCCNC(=N)N)C(C)C)C(=O)N1Cc2cc(O)ccc2C[C@H]1C(=O)N1CCC[C@H]1C(=O)N[C@@H](Cc1ccccc1)C(=O)O (H-RVYI[Tic(7-OH)]PF-OH)",
    "pIC50": 6.87
  },
  {
    "compound": "CC[C@H](C)[C@H](NC(=O)[C@H](Cc1ccc(O)cc1)NC(=O)[C@@H](NC(=O)[C@H](CCCNC(=N)N)NC(=O)[C@@H](N)CC(=O)O)C(C)C)C(=O)N[C@H]1Cc2c([nH]c3ccccc23)CN(CC(=O)N[C@@H](Cc2ccccc2)C(=O)O)C1=O",
    "pIC50": "< 5.00"
  }
]

---

- assayMethodText: Stability of compound in human plasma assessed as parent compound remaining incubated for 24 hrs by LC-MS/MS analysis
- Assay type: ADME, cell-free
- condition: read-out: Stabilty

[
  {
    "substance": "H-DRVYIYPF-OH",
    "remaining at 24 h": "> 50%"
  }
]

---

- assayMethodText: Stability of compound in human plasma assessed as parent compound remaining incubated for 24 hrs by LC-MS/MS analysis
- Format: ADME, cell-free
- condition: read-out: Stabilty
Square brackets hold non-standard residues; d marks the D form. Peptide text beside a SMILES is read from it. Tic(7-OH) = O=C(O)[C@@H]1Cc2ccc(O)cc2CN1
List of remaining at 24 h values.

[
  {
    "compound": "CC[C@H](C)[C@H](NC(=O)[C@H](Cc1ccc(O)cc1)NC(=O)[C@@H](NC(=O)[C@@H](N)CCCNC(=N)N)C(C)C)C(=O)N[C@H]1Cc2c([nH]c3ccccc23)CN(CC(=O)N[C@@H](Cc2ccccc2)C(=O)O)C1=O",
    "qualifierSymbol": "=",
    "remaining at 24 h [%]": 70
  },
  {
    "compound": "CC[C@H](C)[C@H](NC(=O)[C@H](Cc1ccc(O)cc1)NC(=O)[C@@H](NC(=O)[C@H](CCCNC(=N)N)NC(=O)[C@@H](N)CC(=O)O)C(C)C)C(=O)N1Cc2cc(O)ccc2C[C@H]1C(=O)N1CCC[C@H]1C(=O)N[C@@H](Cc1ccccc1)C(=O)O (H-DRVYI[Tic(7-OH)]PF-OH)",
    "qualifierSymbol": ">",
    "remaining at 24 h [%]": 90
  }
]
